- Test system: SMMC-7721
- TEST DESCRIPTION: Antiproliferative activity against human SMMC7721 cells assessed as reduction in cell growth at 8 uM incubated for 72 hrs by CCK-8 assay relative to control
- Type: functional
- CONDITION DETAILS: SMMC-7721, 72 h
Hi, to clarify the labels: Yes covers inhibition at 8 µM from 70% upward, No covers anything below 70%.

- CHEMICAL SMILES: "COc1ccc2c(=O)n(-c3ccccc3C)c(SCc3ccc(C(=O)Nc4ccccc4N)cc3)nc2c1"
  CLASSIFICATION: "Yes"
- CHEMICAL SMILES: "CCCn1c(SCc2ccc(/C=C/C(=O)Nc3ccccc3N)cc2)nc2cc(Cl)ccc2c1=O"
  CLASSIFICATION: "No"
- CHEMICAL SMILES: "CCn1c(SCc2ccc(/C=C/C(=O)Nc3ccccc3N)cc2)nc2cc(Cl)ccc2c1=O"
  CLASSIFICATION: "No"
- CHEMICAL SMILES: "CCn1c(SCc2ccc(/C=C/C(=O)Nc3ccccc3N)cc2)nc2cc(OC)ccc2c1=O"
  CLASSIFICATION: "Yes"
- CHEMICAL SMILES: "Cc1ccc2nc(SCc3ccc(C(=O)Nc4ccccc4N)cc3)n(C)c(=O)c2c1"
  CLASSIFICATION: "Yes"
- CHEMICAL SMILES: "Cn1c(SCc2ccc(C(=O)Nc3ccccc3N)cc2)nc2cc(Cl)ccc2c1=O"
  CLASSIFICATION: "Yes"
- CHEMICAL SMILES: "COc1ccc2c(=O)n(-c3cccc(Cl)c3)c(SCc3ccc(/C=C/C(=O)Nc4ccccc4N)cc3)nc2c1"
  CLASSIFICATION: "No"

====

- Test system: A-375
- TEST DESCRIPTION: Antiproliferative activity against human A375 cells assessed as reduction in cell growth at 2 uM incubated for 72 hrs by CCK-8 assay relative to control
- Assay type: functional
- CONDITION DETAILS: A-375, 72 h
Recorded inhibition at 2 µM for the following compounds

- COMPOUND: "COc1ccc2c(=O)n(CC/C=C/[S+](C)[O-])c(SCc3ccc(C(=O)Nc4ccccc4N)cc3)nc2c1 (stereo unspecified)"
  inhibition at 2 µM, %: 34.4
- COMPOUND: "CCn1c(SCc2ccc(/C=C/C(=O)Nc3ccccc3N)cc2)nc2cc(OC)ccc2c1=O"
  inhibition at 2 µM, %: 55
- COMPOUND: "CCCCn1c(SCc2ccc(C(=O)Nc3ccccc3N)cc2)nc2cc(F)ccc2c1=O"
  inhibition at 2 µM, %: 18
- COMPOUND: "CCCCn1c(SCc2ccc(C(=O)Nc3ccccc3N)cc2)nc2cc(Br)ccc2c1=O"
  inhibition at 2 µM, %: 8.5
- COMPOUND: "Cc1cccc2c(=O)n(C)c(SCc3ccc(/C=C/C(=O)Nc4ccccc4N)cc3)nc12"
  inhibition at 2 µM, %: 9.3
- COMPOUND: "COc1ccc2c(=O)n(-c3cccc(Cl)c3)c(SCC(=O)Nc3ccccc3N)nc2c1"
  inhibition at 2 µM, %: 3.2
- COMPOUND: "Cc1cccc2nc(SCc3ccc(/C=C/C(=O)Nc4ccccc4N)cc3)n(C)c(=O)c12"
  inhibition at 2 µM, %: 24.4
- COMPOUND: "Nc1ccc(F)cc1NC(=O)c1ccc(CNC(=O)/C=C/c2cccnc2)cc1"
  inhibition at 2 µM, %: 27.6
- COMPOUND: "CCn1c(SCc2ccc(C(=O)Nc3ccccc3N)cc2)nc2cc(Br)ccc2c1=O"
  inhibition at 2 µM, %: 19.8
- COMPOUND: "COc1ccc2c(=O)n(C)c(SCc3ccc(C(=O)Nc4ccccc4N)cc3)nc2c1"
  inhibition at 2 µM, %: 52.2
- COMPOUND: "COc1ccc2c(=O)n(-c3ccccc3C)c(SCc3ccc(C(=O)Nc4ccccc4N)cc3)nc2c1"
  inhibition at 2 µM, %: 39.1
- COMPOUND: "Cn1c(SCc2ccc(C(=O)Nc3ccccc3N)cc2)nc2cc(F)ccc2c1=O"
  inhibition at 2 µM, %: 30
- COMPOUND: "COc1ccc2c(=O)n(-c3cccc(Cl)c3)c(SCc3ccc(C(=O)Nc4ccccc4N)cc3)nc2c1"
  inhibition at 2 µM, %: 21.7
- COMPOUND: "Cn1c(SCc2ccc(/C=C/C(=O)Nc3ccccc3N)cc2)nc2cc(Cl)ccc2c1=O"
  inhibition at 2 µM, %: 2.4
- COMPOUND: "Cn1c(SCc2ccc(/C=C/C(=O)Nc3ccccc3N)cc2)nc2cc(Br)ccc2c1=O"
  inhibition at 2 µM, %: 4
- COMPOUND: "Cc1cccc2c(=O)n(C)c(SCc3ccc(C(=O)Nc4ccccc4N)cc3)nc12"
  inhibition at 2 µM, %: 48.3

====

- Tested on: SMMC-7721
- TEST DESCRIPTION: Antiproliferative activity against human SMMC7721 cells assessed as reduction in cell growth at 8 uM incubated for 72 hrs by CCK-8 assay relative to control
- Type: functional
- CONDITION DETAILS: SMMC-7721, 72 h

- COMPOUND: "CCCCn1c(SCc2ccc(C(=O)Nc3ccccc3N)cc2)nc2cc(F)ccc2c1=O"
  TARGET OR SYSTEM: "SMMC-7721"
  inhibition at 8 µM: "41.6%"
- COMPOUND: "Nc1ccccc1NC(=O)c1ccc(CNC(=O)OCc2cccnc2)cc1 [ENTINOSTAT]"
  TARGET OR SYSTEM: "SMMC-7721"
  inhibition at 8 µM: "48.7%"
- COMPOUND: "Cn1c(SCc2ccc(/C=C/C(=O)Nc3ccccc3N)cc2)nc2cc(Cl)ccc2c1=O"
  TARGET OR SYSTEM: "SMMC-7721"
  inhibition at 8 µM: "20.9%"
- COMPOUND: "CCn1c(SCc2ccc(C(=O)Nc3ccccc3N)cc2)nc2cc(Br)ccc2c1=O"
  TARGET OR SYSTEM: "SMMC-7721"
  inhibition at 8 µM: "36.8%"
- COMPOUND: "COc1ccc2c(=O)n(C)c(SCc3ccc(C(=O)Nc4ccccc4N)cc3)nc2c1"
  TARGET OR SYSTEM: "SMMC-7721"
  inhibition at 8 µM: "79.3%"
- COMPOUND: "COc1ccc2c(=O)n(C)c(SCc3ccc(/C=C/C(=O)Nc4ccccc4N)cc3)nc2c1"
  TARGET OR SYSTEM: "SMMC-7721"
  inhibition at 8 µM: "15.4%"
- COMPOUND: "Nc1ccccc1NC(=O)c1ccc(CSc2nc3cc(Br)ccc3c(=O)n2-c2cccc(Cl)c2)cc1"
  TARGET OR SYSTEM: "SMMC-7721"
  inhibition at 8 µM: "21%"
- COMPOUND: "COc1ccc2c(=O)n(CCCC[S+](C)[O-])c(SCc3ccc(/C=C/C(=O)Nc4ccccc4N)cc3)nc2c1 (stereo unspecified)"
  TARGET OR SYSTEM: "SMMC-7721"
  inhibition at 8 µM: "9.9%"
- COMPOUND: "Cc1cccc2c(=O)n(C)c(SCc3ccc(C(=O)Nc4ccccc4N)cc3)nc12"
  TARGET OR SYSTEM: "SMMC-7721"
  inhibition at 8 µM: "74.4%"
- COMPOUND: "CCn1c(SCc2ccc(C(=O)Nc3ccccc3N)cc2)nc2cc(Cl)ccc2c1=O"
  TARGET OR SYSTEM: "SMMC-7721"
  inhibition at 8 µM: "34.2%"
- COMPOUND: "Cc1ccc2c(=O)n(C)c(SCc3ccc(C(=O)Nc4ccccc4N)cc3)nc2c1"
  TARGET OR SYSTEM: "SMMC-7721"
  inhibition at 8 µM: "78.9%"
- COMPOUND: "CCn1c(SCC(=O)Nc2ccccc2N)nc2cc(Cl)ccc2c1=O"
  TARGET OR SYSTEM: "SMMC-7721"
  inhibition at 8 µM: "2.1%"
- COMPOUND: "COc1ccc2c(=O)n(-c3ccccc3Cl)c(SCc3ccc(C(=O)Nc4ccccc4N)cc3)nc2c1"
  TARGET OR SYSTEM: "SMMC-7721"
  inhibition at 8 µM: "84.1%"
- COMPOUND: "CCCCn1c(SCc2ccc(C(=O)Nc3ccccc3N)cc2)nc2cc(Br)ccc2c1=O"
  TARGET OR SYSTEM: "SMMC-7721"
  inhibition at 8 µM: "26.4%"
- COMPOUND: "CCn1c(SCc2ccc(C(=O)Nc3ccccc3N)cc2)nc2cc(F)ccc2c1=O"
  TARGET OR SYSTEM: "SMMC-7721"
  inhibition at 8 µM: "20.4%"
- COMPOUND: "Cn1c(SCc2ccc(/C=C/C(=O)Nc3ccccc3N)cc2)nc2cc(F)ccc2c1=O"
  TARGET OR SYSTEM: "SMMC-7721"
  inhibition at 8 µM: "29.5%"

====

- Tested on: SMMC-7721
- TEST DESCRIPTION: Induction of apoptosis in human SMMC7721 cells assessed as early apoptotic cells at 4 uM incubated for 48 hrs by Annexin-V-FITC/propidium iodide staining based flow cytometry (Rvb=2.88%)
- Format: functional
Hi, to clarify the labels: condition met covers Activity from 10% upward, condition not met covers anything below 10%.

- CHEMICAL SMILES: "Nc1ccccc1NC(=O)c1ccc(CNC(=O)OCc2cccnc2)cc1"
  CLASSIFICATION: "condition met"
- CHEMICAL SMILES: "COc1ccc2c(=O)n(C)c(SCc3ccc(C(=O)Nc4ccccc4N)cc3)nc2c1"
  CLASSIFICATION: "condition met"
- CHEMICAL SMILES: "COc1ccc2c(=O)n(-c3ccccc3Cl)c(SCc3ccc(C(=O)Nc4ccccc4N)cc3)nc2c1"
  CLASSIFICATION: "condition not met"
- CHEMICAL SMILES: "CCn1c(SCc2ccc(/C=C/C(=O)Nc3ccccc3N)cc2)nc2cc(OC)ccc2c1=O"
  CLASSIFICATION: "condition met"
- CHEMICAL SMILES: "Cn1c(SCc2ccc(C(=O)Nc3ccccc3N)cc2)nc2cc(Br)ccc2c1=O"
  CLASSIFICATION: "condition not met"
- CHEMICAL SMILES: "Nc1ccc(F)cc1NC(=O)c1ccc(CNC(=O)/C=C/c2cccnc2)cc1"
  CLASSIFICATION: "condition met"
